system: COS-1 cells; experiment: MTT assay (cell viability); format: cell-based; conditions: 1 µM; cell viability
Known MTT.1µM of a selection of compounds

# compound, MTT.1µM
measured = [
    ("CCN(CC)c1ccc(NC(=O)c2csc([N+](=O)[O-])c2)cc1 [Compound 47u]", 105.56),
    ("CCN(CC)c1ccc(NC(=O)c2c(-c3ccncc3)noc2C)cc1 [Compound 39c]", 105.77),
    ("CN(C)c1ccc(NCc2c[nH]nc2-c2ccc(F)cc2)cc1", 105.6),
    ("CCN(CC)c1ccc(CN(C(=O)C(F)(F)F)c2c(-c3ccccc3)noc2C)cc1 [Compound 30c]", 100.8),
    ("C=CCN(Cc1ccc(N(CC)CC)cc1)c1c(-c2ccccc2)noc1C [Compound 30b]", 104.18),
]

* * *

Item-by-item account of activity at 3 µM
target: GATA4–NKX2-5 transcriptional synergy (Mus musculus, UniProt P42582+Q08369); construct: expressed in transfected cells; host or cells: COS-1; experiment: GATA4–NKX2-5 transcriptional synergy luciferase reporter assay (3xNKE reporter, COS-1 cells); format: cell-based; details: COS-1; compound 3 µM; luciferase reporter activity relative to control
Sequence (Q08369 whole entry): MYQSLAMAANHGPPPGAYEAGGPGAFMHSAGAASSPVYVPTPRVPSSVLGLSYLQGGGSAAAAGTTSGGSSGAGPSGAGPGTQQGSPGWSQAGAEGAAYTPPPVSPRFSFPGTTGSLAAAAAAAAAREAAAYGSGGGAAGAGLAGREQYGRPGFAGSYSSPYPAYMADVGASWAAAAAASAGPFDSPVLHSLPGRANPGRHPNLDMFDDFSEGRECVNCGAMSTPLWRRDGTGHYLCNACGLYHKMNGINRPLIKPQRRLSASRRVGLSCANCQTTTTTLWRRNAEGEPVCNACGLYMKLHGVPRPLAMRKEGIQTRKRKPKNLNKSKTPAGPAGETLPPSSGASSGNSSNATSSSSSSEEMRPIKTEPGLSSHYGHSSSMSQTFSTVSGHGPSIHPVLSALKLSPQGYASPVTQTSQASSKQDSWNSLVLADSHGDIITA
Sequence (P42582 whole entry): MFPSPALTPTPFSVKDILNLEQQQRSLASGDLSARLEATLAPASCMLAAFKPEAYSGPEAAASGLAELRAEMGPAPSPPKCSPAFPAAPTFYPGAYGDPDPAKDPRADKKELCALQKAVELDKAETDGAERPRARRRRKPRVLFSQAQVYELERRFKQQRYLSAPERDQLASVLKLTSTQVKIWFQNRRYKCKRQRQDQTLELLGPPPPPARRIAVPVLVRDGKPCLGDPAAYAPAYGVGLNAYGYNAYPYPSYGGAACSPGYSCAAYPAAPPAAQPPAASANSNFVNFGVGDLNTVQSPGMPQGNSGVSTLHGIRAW

# molecule, system.tested, activity at 3 µM, %
measured = [
    ("CCN(CC)C(=O)c1ccc(OCc2c(-c3ccccc3)noc2C)cc1 [Compound 36b]", "GATA4–NKX2-5 transcriptional synergy (Mus musculus, UniProt P42582+Q08369)", 79.3),
    ("CCN(CC)c1ccc(N(C)C(=S)c2c(-c3ccccc3)noc2C)cc1", "GATA4–NKX2-5 transcriptional synergy (Mus musculus, UniProt P42582+Q08369)", 92.9),
    ("COC(=O)c1c(-c2ccccc2)nnn1CCc1ccccc1", "GATA4–NKX2-5 transcriptional synergy (Mus musculus, UniProt P42582+Q08369)", 103),
    ("CCN(CC)c1ccc(NC(=O)c2c(-c3ccccc3)nnn2CCC2OCCO2)cc1", "GATA4–NKX2-5 transcriptional synergy (Mus musculus, UniProt P42582+Q08369)", 78.8),
    ("CCN(CC)c1ccc(/C=N/c2c(-c3ccccc3)noc2C)cc1", "GATA4–NKX2-5 transcriptional synergy (Mus musculus, UniProt P42582+Q08369)", 94.1),
    ("CCN(CC)c1ccc(C(=O)Cn2nnnc2-c2ccccc2)cc1", "GATA4–NKX2-5 transcriptional synergy (Mus musculus, UniProt P42582+Q08369)", 96.6),
    ("Cc1noc(-c2ccccc2)c1C(=O)Nc1ccc2oc(-c3ccccc3)cc(=O)c2c1", "GATA4–NKX2-5 transcriptional synergy (Mus musculus, UniProt P42582+Q08369)", 70.3),
    ("CCN(CC)c1ccc(NC(=O)c2c(-c3ccccc3)nnn2CC2CCCO2)cc1 (stereo not drawn)", "GATA4–NKX2-5 transcriptional synergy (Mus musculus, UniProt P42582+Q08369)", 88.2),
    ("CCN(CC)c1ccc(CN(C(=O)Nc2ccc(C#N)cc2)c2c(-c3ccccc3)noc2C)cc1 [Compound 30d]", "GATA4–NKX2-5 transcriptional synergy (Mus musculus, UniProt P42582+Q08369)", 90),
]

* * *

target: NKX2-5 transcriptional activity (Mus musculus, UniProt P42582); construct: expressed in transfected cells; host or cells: COS-1; assay: NKX2-5 luciferase reporter assay (3xNKE reporter, COS-1 cells); type: cell-based; conditions: COS-1; 10 µM, luciferase reporter activity, % of control; read-out: NKX.10µM

# molecule, unit.symbol, activity at 10 µM
rows = [
    ("Cc1onc(-c2ccccc2)c1N=Cc1ccc(N(C)C)cc1", "%", 103),
    ("CCN(CC)c1ccc(N(C)C(=O)c2c(-c3ccccc3)noc2C)cc1 [Compound 25a]", "%", 101),
    ("CN(C)c1ccc(/N=C/c2c[nH]nc2-c2ccc(F)cc2)cc1", "%", 145),
    ("C#CC[N+](CC)(CC)c1ccc(NC(=O)c2c(-c3ccccc3)noc2C)cc1", "%", 117),
    ("Cc1onc(-c2ccccc2)c1COCc1ccc2ccccc2c1", "%", 95.1),
]

* * *

biological target: GATA4 transcriptional activity (Mus musculus, UniProt Q08369); construct: expressed in transfected cells; host or cells: COS-1; test: GATA4 luciferase reporter assay (tandem GATA-site reporter, COS-1 cells); format: cell-based; conditions: COS-1; 3 µM; luciferase reporter activity relative to control
Catalogue of compounds with associated activity at 3 µM

# compound, unit.symbol, activity at 3 µM
records = [
    ("CCN(CC)c1ccc(NC(=O)c2cnsc2)cc1 [Compound 47s]", "%", 128),
    ("CN(C)c1ccc(NCc2c[nH]nc2-c2ccc(F)cc2)cc1", "%", 83.7),
    ("CCN(CC)c1ccc(NC(=O)c2snnc2-c2ccccc2)cc1 [Compound 47n]", "%", 92.4),
    ("Cc1onc(-c2ccccc2)c1C(=O)Nc1ccc(OCc2ccccc2)cc1", "%", 104),
    ("CCC(=O)N(Cc1ccc(N(CC)CC)cc1)c1c(-c2ccccc2)noc1C", "%", 70.3),
]

* * *

system: COS-1 cells; test: MTT assay (cell viability); assay type: cell-based; conditions: 10 µM; cell viability
Reported MTT.10µM values follow for various compounds
reported.metric: MTT.10µM

# compound, reported
measured = [
    ("CCN(CC)c1ccc(NC(=O)c2c[nH]nc2-c2ccccc2)cc1", 100.53),
    ("CCN(CC)c1ccc(CN(C(=O)C(F)(F)F)c2c(-c3ccccc3)noc2C)cc1 [Compound 30c]", 91.24),
    ("CCN(CC)c1ccc(NC(=O)c2cc(C)oc2-c2ccccc2)cc1", 74.16),
    ("COc1ccc(-c2cc(NC(=O)c3ccc(C(C)(C)C)cc3)n[nH]2)cc1", 102.37),
    ("CCN(CC)c1ccc(NC(=O)c2c(C)noc2-c2cc(C)on2)cc1", 100.7),
    ("COc1ccc(-c2cc(N)nn2C(=O)c2c(-c3ccccc3)noc2C)cc1", 104.9),
    ("CCN(CC)c1ccc(NC(=O)c2c(-c3cccc([N+](=O)[O-])c3)noc2C)cc1 [Compound 39g]", 106.4),
    ("CC[N+](O)(CC)c1ccc(NC(=O)c2c(-c3ccccc3)noc2C)cc1", 104.23),
    ("CC(=O)N(Cc1ccc(N(C)C)cc1)c1c(-c2ccccc2)noc1C", 77.4),
    ("CCN(CC)c1ccc(NC(=O)c2c(-c3ccccc3)nnn2CCc2ccccc2)cc1", 94.48),
    ("CCN(CC)c1ccc(NC(=O)c2cnc3ncccn23)cc1 [Compound 47aa]", 99.76),
    ("Cc1onc(-c2ccccc2)c1COc1ccc(C(=O)OCCC#N)cc1 [Compound 35a]", 66.11),
    ("CCCn1nnc(-c2ccccc2)c1C(=O)Nc1ccc(N(CC)CC)cc1", 109.58),
    ("CCN(CC)c1ccc(NC(=O)c2c(C)noc2-c2ccccc2)cc1", 81.39),
    ("CCN(CC)c1ccc(NC(=O)c2ccnn2-c2ccccc2)cc1", 83.67),
    ("CC(=O)COC(=O)c1ccc(OCc2c(-c3ccccc3)noc2C)cc1 [Compound 35d]", 64.91),
    ("CCN(CC)c1ccc(NCc2c[nH]nc2-c2cc(F)cc(F)c2)cc1", 104.94),
]

* * *

tested on: COS-1 cells; assay: MTT assay (cell viability); type: cell-based; details: 3 µM; cell viability
Threshold 100: MTT.3µM strictly smaller gives MET, otherwise NOT MET.

# molecule, label.value
rows = [
    ("CCN(CC)c1ccc(NC(=O)c2snnc2-c2ccccc2)cc1 [Compound 47n]", "MET"),
    ("CCN(CC)c1ccc(NC(=O)c2c(-c3ccncc3)noc2C)cc1 [Compound 39c]", "NOT MET"),
    ("COc1ccc(-c2cc(N)nn2C(=O)c2c(-c3ccccc3)noc2C)cc1", "NOT MET"),
    ("CCN(CC)c1ccc(NC(=O)c2ccnn2-c2ccccc2)cc1", "MET"),
    ("CCN(CC)c1ccc(NC(=O)c2cnoc2-c2ccccc2)cc1 [Compound 47d]", "MET"),
    ("CCN(CC)c1ccc(NC(=O)c2csc(C)c2-c2ccccc2)cc1 [Compound 47t]", "NOT MET"),
    ("CCN(CC)c1ccc(NC(=O)c2c(-c3cccc([N+](=O)[O-])c3)noc2C)cc1 [Compound 39g]", "NOT MET"),
    ("Cc1onc(-c2ccccc2)c1COc1ccc(C(=O)OCCC#N)cc1 [Compound 35a]", "MET"),
    ("CC(=O)N(Cc1ccc(N(C)C)cc1)c1c(-c2ccccc2)noc1C", "MET"),
    ("CCN(CC)c1ccc(NC(=O)c2c(C)noc2-c2ccccc2)cc1", "MET"),
    ("CCN(CC)c1ccc(NC(=O)c2cnc3ncccn23)cc1 [Compound 47aa]", "NOT MET"),
    ("CCN(CC)c1ccc(NC(=O)c2cc(C)oc2-c2ccccc2)cc1", "MET"),
    ("CCN(CC)c1ccc(NC(=O)c2cnsc2)cc1 [Compound 47s]", "MET"),
    ("Cc1onc(-c2ccccc2)c1C(=O)Nc1ccc(C#C[Si](C)(C)C)cc1", "NOT MET"),
    ("CCN(CC)c1ccc(NC(=O)c2c[nH]nc2-c2ccccc2)cc1", "NOT MET"),
    ("CCN(CC)c1ccc(NCc2c[nH]nc2-c2cc(F)cc(F)c2)cc1", "NOT MET"),
    ("CCN(c1ccc(NC(=O)c2c(C)noc2-c2ccccc2)cc1)C(C)C", "MET"),
    ("CCN(CC)c1ccc(NC(=O)c2c(C)noc2-c2cc(C)on2)cc1", "NOT MET"),
    ("CC[N+](O)(CC)c1ccc(NC(=O)c2c(-c3ccccc3)noc2C)cc1", "NOT MET"),
    ("CC(=O)COC(=O)c1ccc(OCc2c(-c3ccccc3)noc2C)cc1 [Compound 35d]", "MET"),
    ("CCC(=O)N(Cc1ccc(N(CC)CC)cc1)c1c(-c2ccccc2)noc1C", "MET"),
    ("CCCn1nnc(-c2ccccc2)c1C(=O)Nc1ccc(N(CC)CC)cc1", "NOT MET"),
    ("CCC(OC)c1ccc(OCc2c(-c3ccccc3)noc2C)cc1 (racemic) [Compound 34e]", "MET"),
    ("CCN(CC)c1ccc(NC(=O)c2cnc(SC)n2-c2ccc(F)cc2)cc1 [Compound 47z]", "MET"),
]
